These entries and their values trace back to ChEMBL document CHEMBL5126521.

Target: Kappa-type opioid receptor (Mus musculus)
Sequence (P33534 whole entry): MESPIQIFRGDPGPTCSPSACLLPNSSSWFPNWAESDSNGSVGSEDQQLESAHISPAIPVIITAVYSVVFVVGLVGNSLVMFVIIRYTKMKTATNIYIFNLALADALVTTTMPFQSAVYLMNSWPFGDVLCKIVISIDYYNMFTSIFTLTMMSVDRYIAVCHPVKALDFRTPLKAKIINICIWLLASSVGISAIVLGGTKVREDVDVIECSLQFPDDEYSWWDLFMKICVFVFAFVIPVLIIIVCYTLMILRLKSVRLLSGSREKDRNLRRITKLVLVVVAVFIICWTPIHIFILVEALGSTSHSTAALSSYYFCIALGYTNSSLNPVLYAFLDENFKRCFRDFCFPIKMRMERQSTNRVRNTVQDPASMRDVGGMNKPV
Assay: Agonist activity at C57BL6/J mouse brain KOP by calcium mobilization assay
Type: functional, tissue-based
EXPERIMENTAL READOUT: EC50 (nM)
Answer format: numeric, nM implied, no suffix.

Look at this molecule and give its reported EC50. CCC(=O)O[C@H]1C[C@@H](C(=O)OC)[C@]2(C)CC[C@H]3C(=O)O[C@H](c4ccoc4)C[C@]3(C)[C@H]2C1=O 102

###

Molecular target: Kappa-type opioid receptor (Homo sapiens, UniProt P41145)
Sequence (P41145 whole entry): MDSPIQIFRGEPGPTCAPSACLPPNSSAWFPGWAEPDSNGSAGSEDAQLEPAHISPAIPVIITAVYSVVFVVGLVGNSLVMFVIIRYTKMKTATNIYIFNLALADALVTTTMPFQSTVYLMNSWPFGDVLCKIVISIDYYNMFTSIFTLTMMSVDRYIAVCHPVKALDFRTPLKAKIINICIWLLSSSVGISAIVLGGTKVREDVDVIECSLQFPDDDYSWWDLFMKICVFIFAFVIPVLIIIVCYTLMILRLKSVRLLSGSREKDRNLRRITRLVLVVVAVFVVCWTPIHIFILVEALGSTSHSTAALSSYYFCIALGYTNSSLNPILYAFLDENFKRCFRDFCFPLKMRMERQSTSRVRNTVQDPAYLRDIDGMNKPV
Test: Agonist activity at KOP (unknown origin)
Type: functional
EXPERIMENTAL READOUT: EC50 (µM)
Answer format: numeric, µM implied, no suffix.

Look at this compound and give its reported EC50. CC[C@@H]1CN2CCc3c([nH]c4cccc(OC)c34)[C@@H]2C[C@@H]1/C(=C\OC)C(=O)OC 8.5
